The reported measurements were obtained from patent US7179804B2.

melting point values by entry
Write it as a number; the unit °C goes unstated.

Smiles String | melting point / °C
CC(C)(O)c1onc(-c2ccccc2Cl)c1C(=O)c1nnn(Cc2cc(C(F)(F)F)cc(C(F)(F)F)c2)c1N1CCOCC1 | 188

Please fill in: melting point reported for CC(C)(O)c1onc(-c2ccccc2Cl)c1C(=O)c1nnn(Cc2cc(C(F)(F)F)cc(C(F)(F)F)c2)c1-c1cccnc1 = 105

melting point measured on CC(C)(O)c1onc(-c2ccccc2Cl)c1C(=O)c1nnn(Cc2cc(F)cc(C(F)(F)F)c2)c1-c1cccnc1 = 180

O=C(c1nnn(Cc2cc(C(F)(F)F)cc(C(F)(F)F)c2)c1-n1ccnc1)c1c(CO)noc1-c1ccccc1Cl yielded melting point of 148.8
